Reference source for all entries: ChEMBL document CHEMBL4342442

Test system: Pseudomonas aeruginosa
Assay: Antibacterial activity against Pseudomonas aeruginosa MTCC 741 assessed as diameter of zone of inhibition at 200 ug/ml after 24 hrs by agar well diffusion method
Type: functional
Activity calls are given as the source filed them. The rule behind the calls is not given here.
REPORTED PROPERTY: diameter of the inhibition zone (DIZ)

1. CC(=O)c1c(O)c(C)c(O)c2c1OC1=CC(=O)/C(=C(/C)NCc3cn(CC(=O)N4CCOCC4)nn3)C(=O)C12C (stereo not drawn)    inactive
2. COc1ccccc1N1CCN(C(=O)Cn2cc(CN/C(C)=C3\C(=O)C=C4Oc5c(C(C)=O)c(O)c(C)c(O)c5C4(C)C3=O)nn2)CC1 (stereo not drawn)    inactive
3. CC(=O)c1c(O)c(C)c(O)c2c1OC1=CC(=O)/C(=C(/C)NCc3cn(CC(=O)c4ccc5ccccc5c4)nn3)C(=O)C12C (stereo not drawn)    inactive
